tested on: NCI-H1299; test: relative viability (nuclei count vs DMSO), 5 days (fraction); higher = more cells survive; details: first compound 15.81 µM
relative viability: recorded values
Give the value as a plain number.

Some molecules with recorded relative viability:
O=C(O)CCCCC(CCSCc1ccccc1)SCc1ccccc1 (centres undefined) [CPI-613] + CS(=O)(=O)N1CCN(Cc2cc3nc(-c4cccc5[nH]ncc45)nc(N4CCOCC4)c3s2)CC1 [Pictilisib] (partner 1 µM): 0.756
O=C(O)CCCCC(CCSCc1ccccc1)SCc1ccccc1 (centres undefined) [CPI-613] + C[C@]1(O)C[C@@H](c2nc(-c3ccc4ccc(-c5ccccc5)nc4c3)c3c(N)nccn32)C1 [Linsitinib] (partner 1 µM): 0.894
O=C(O)CCCCC(CCSCc1ccccc1)SCc1ccccc1 (centres undefined) [CPI-613] + O=C(c1cc(Cc2n[nH]c(=O)c3ccccc23)ccc1F)N1CCN(C(=O)C2CC2)CC1 [Olaparib] (partner 8 µM): 1.01

Attention now shifts to the item below.
Enquiry: Fill in relative viability for record O=C(O)CCCCC(CCSCc1ccccc1)SCc1ccccc1 (centres undefined) [CPI-613] + CS(=O)(=O)CCNCc1ccc(-c2ccc3ncnc(Nc4ccc(OCc5cccc(F)c5)c(Cl)c4)c3c2)o1 [Lapatinib] (partner 2 µM)
Return: 0.945
